molecular target: EGFR(D770_N771insSVD) expressing Ba/F3 stable cell line (Homo sapiens, UniProt P00533, DUP768-770, cells depend on it); experiment: Cellular proliferation (Alamar Blue) assay, EGFR D770_N771insSVD Ba/F3; format: cell-based; settings: 72 hr, read-out: D770 IC50
Sequence (P00533 with tags, fused parts or gaps DUP768-770): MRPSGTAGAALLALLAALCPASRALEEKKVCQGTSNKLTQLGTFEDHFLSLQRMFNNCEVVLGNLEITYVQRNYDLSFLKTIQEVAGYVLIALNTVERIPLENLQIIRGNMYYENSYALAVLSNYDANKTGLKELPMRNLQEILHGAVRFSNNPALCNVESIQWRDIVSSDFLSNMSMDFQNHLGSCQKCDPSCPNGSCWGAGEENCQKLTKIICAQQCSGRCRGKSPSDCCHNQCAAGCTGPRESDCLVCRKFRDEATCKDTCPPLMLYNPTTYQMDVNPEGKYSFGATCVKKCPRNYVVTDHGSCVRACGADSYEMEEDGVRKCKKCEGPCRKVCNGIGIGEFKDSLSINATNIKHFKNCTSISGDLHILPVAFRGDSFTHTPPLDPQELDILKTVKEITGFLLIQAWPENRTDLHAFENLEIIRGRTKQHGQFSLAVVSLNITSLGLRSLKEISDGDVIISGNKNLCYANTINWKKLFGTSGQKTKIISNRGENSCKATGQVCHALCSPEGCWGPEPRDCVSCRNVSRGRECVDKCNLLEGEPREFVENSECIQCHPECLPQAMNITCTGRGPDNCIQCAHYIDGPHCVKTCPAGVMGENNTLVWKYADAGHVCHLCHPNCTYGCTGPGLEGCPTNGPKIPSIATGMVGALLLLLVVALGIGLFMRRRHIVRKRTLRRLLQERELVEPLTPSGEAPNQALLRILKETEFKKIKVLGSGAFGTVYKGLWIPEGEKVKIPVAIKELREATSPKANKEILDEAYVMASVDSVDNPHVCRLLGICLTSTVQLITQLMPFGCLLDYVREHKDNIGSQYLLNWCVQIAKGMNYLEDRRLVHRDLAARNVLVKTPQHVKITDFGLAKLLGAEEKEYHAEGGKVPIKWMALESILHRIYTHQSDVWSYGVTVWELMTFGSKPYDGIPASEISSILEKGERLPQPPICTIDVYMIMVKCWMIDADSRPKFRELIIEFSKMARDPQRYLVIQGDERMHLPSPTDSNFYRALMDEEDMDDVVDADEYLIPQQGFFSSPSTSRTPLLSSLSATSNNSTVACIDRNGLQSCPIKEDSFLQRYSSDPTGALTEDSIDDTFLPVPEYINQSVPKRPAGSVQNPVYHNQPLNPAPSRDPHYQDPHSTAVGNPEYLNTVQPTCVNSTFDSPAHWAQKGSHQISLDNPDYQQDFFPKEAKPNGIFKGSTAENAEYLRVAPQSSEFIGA
Structures can show the parent of a compound that is named as a salt.
Kindly state GI50 for each of the entries shown.
Give bare numbers, in nM.

Recorded GI50, per entry:
>>> print(df.to_string())
                                   compound  endpoint_name  display_unit  value_measured
0  C=CC(=O)Nc1cccc(Nc2nc(Nc3cnn(C)c3)nnc2Cl)c1           GI50            nM            1890
1  C=CC(=O)Nc1ccc(F)c(Nc2nc(Nc3cnn(CCN(C)C)c3)ncc2-c2ccc(C(F)(F)F)cc2)c1 [Compound 72, trifluoroacetate]           GI50            nM              99
2  C=CC(=O)Nc1ccc(F)c(Nc2nc(Nc3cnn(C)c3)ncc2-c2cccc(N(C)C)c2)c1           GI50            nM             911
3  C=CC(=O)Nc1cccc(Oc2nc(Nc3ccc(CN(C)C)cc3)ncc2-c2ccc(C(F)(F)F)cc2)c1           GI50            nM             383
4  CN(C)C/C=C/C(=O)Nc1ccc(F)c(Nc2nc(Nc3cnn(C)c3)ncc2Cl)c1           GI50            nM            3000

For each of the items listed, what is its GI50?
1. C=CC(=O)Nc1ccc(F)c(Nc2nc(Nc3cnn(C)c3)ncc2-c2cncc(C(F)F)c2)c1
2. C=CC(=O)Nc1ccc(F)c(Nc2nc(Nc3cnn(C)c3)ncc2-c2ccccc2)c1
3. C=CC(=O)Nc1cc(F)cc(Nc2nc(Nc3cnn(C)c3)ncc2-c2ccc(C(F)(F)F)cc2)c1

a:
[34, 121, 36]

----------
target: EGFR (H773insNPH) expressing Ba/F3 stable cell line (Homo sapiens, UniProt P00533, DUP771-773, cells depend on it); assay: Cellular proliferation (Alamar Blue) assay, EGFR H773insNPH Ba/F3; type: cell-based; conditions: 72 hr, read-out: NPH IC50
Sequence (P00533 with tags, fused parts or gaps DUP771-773): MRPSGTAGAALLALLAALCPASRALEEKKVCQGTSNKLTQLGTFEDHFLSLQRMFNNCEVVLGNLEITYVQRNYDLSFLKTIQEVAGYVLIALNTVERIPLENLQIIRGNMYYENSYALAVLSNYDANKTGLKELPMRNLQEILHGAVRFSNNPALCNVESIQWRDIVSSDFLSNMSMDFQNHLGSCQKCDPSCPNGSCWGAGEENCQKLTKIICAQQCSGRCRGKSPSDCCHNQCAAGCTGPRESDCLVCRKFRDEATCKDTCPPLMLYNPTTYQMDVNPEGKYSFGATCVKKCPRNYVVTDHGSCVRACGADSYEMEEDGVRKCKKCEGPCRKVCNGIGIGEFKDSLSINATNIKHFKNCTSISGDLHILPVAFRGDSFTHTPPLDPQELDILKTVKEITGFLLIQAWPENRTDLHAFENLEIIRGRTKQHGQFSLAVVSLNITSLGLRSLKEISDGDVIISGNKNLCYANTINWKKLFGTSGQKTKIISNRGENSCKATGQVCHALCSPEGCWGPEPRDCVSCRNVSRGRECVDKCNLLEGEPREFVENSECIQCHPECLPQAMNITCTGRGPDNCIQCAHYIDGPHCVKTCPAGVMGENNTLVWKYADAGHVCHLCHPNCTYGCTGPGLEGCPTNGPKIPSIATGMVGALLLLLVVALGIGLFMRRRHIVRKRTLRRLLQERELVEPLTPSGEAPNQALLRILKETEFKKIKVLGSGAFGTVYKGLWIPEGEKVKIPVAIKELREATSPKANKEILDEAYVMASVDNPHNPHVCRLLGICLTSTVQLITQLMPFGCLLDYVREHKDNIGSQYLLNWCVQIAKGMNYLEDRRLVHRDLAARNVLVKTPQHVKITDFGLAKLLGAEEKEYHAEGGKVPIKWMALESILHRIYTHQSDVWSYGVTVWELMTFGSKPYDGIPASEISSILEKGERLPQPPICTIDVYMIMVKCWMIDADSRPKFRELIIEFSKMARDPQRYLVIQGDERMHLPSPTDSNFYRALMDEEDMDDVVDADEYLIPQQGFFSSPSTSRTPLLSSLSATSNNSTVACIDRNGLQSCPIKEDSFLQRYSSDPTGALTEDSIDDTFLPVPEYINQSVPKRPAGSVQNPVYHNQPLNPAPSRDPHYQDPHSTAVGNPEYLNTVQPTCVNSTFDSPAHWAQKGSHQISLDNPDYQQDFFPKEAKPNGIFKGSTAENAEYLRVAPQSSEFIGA
Threshold 200 nM. GI50 below it: YES. GI50 at it or above: NO.

Examples from the recorded data:
>>> df
                                   compound  assigned_category
0  C=CC(=O)Nc1ccc(F)c(Nc2nc(Nc3cn(CCN(C)C)nc3Cl)ncc2-c2ccc(C(F)(F)F)cc2)c1                 NO
1  C=CC(=O)Nc1ccc(F)c(Nc2nc(Nc3cnn(CC(C)(C)O)c3)ncc2Cl)c1                 NO

q: GI50 under 200 nM? Item: C=CC(=O)Nc1cccc(Oc2nc(Nc3cnn(C)c3)ncc2-c2ccc(F)nc2)c1
a: YES

q: Check if GI50 falls below 200 nM for C=CC(=O)Nc1ccc(F)c(Nc2nc(Nc3cnn(C)c3)ncc2-c2cncc(F)c2)c1 .
a: YES

----------
target: EGFR (A767_dupASV) expressing Ba/F3 stable cell line (Homo sapiens, UniProt P00533, DUP767-769, cells depend on it); assay: Cellular proliferation (Alamar Blue) assay, EGFR A767_dupASV Ba/F3; format: cell-based; settings: 72 hr, read-out: A767 IC50
Sequence (P00533 with tags, fused parts or gaps DUP767-769): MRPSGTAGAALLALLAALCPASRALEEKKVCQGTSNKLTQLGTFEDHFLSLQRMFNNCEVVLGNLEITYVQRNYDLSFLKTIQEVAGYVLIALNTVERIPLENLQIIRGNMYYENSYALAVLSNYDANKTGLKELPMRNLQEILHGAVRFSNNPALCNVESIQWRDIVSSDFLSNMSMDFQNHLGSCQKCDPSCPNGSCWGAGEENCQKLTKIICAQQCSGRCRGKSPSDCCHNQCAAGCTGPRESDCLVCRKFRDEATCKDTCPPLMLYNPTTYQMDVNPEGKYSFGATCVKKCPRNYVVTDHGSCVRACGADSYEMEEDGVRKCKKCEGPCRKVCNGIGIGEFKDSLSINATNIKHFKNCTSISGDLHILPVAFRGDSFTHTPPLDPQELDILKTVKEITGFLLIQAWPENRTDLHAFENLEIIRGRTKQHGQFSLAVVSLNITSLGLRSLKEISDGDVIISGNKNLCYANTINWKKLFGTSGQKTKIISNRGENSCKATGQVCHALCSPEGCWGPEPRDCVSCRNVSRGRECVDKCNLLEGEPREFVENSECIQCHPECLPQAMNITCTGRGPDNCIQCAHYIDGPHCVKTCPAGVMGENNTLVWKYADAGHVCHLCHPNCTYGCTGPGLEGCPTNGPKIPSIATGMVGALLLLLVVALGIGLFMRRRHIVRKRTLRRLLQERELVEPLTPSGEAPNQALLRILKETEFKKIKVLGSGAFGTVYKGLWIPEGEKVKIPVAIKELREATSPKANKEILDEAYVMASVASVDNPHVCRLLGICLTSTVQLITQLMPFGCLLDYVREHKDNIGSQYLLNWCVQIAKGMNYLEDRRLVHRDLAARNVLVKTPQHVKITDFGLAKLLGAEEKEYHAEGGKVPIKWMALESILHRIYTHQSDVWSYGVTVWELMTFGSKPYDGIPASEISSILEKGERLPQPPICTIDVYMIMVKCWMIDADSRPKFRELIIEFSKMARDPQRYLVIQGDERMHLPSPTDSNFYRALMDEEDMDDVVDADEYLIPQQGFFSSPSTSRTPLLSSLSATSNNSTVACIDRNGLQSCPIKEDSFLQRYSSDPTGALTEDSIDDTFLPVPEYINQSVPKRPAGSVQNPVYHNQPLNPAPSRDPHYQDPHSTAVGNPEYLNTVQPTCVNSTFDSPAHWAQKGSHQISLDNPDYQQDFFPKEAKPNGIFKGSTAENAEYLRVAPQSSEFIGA
Structures can show the parent of a compound that is named as a salt.
# note: boundary value 700 nM maps to false; GI50 below it maps to true

Please review the following examples before continuing.
                                   compound  assigned_category
0  C=CC(=O)Nc1ccc(Cl)c(Nc2nc(Nc3cnn(C)c3)ncc2Cl)c1              false
1  C=CC(=O)Nc1cccc(Nc2nc(Nc3cnn(C)c3)ncc2-c2ccc(OC)nc2)c1 [Compound 118, trifluoroacetate]               true
2  C=CC(=O)Nc1ccc(F)c(Nc2nc(-n3ccc(N)cc3=O)ncc2Cl)c1              false
3  CN(C)C/C=C/C(=O)Nc1cccc(F)c1CNc1nc(Nc2cnn(C)c2)ncc1Cl              false

q: Hi there! Is GI50 for C=CC(=O)Nc1ccc(F)c(Nc2nc(Nc3cnn(C)c3)ncc2-c2cccnc2OC)c1 below 700 nM, do you know?
a: false

q: Could you please tell me whether GI50 recorded for C=CC(=O)Nc1cccc(Nc2nc(Nc3cnn(C)c3)nnc2Cl)c1 is less than 700 nM?
a: false

q: Below 700 nM on GI50? Entry C=CC(=O)Nc1ccc(F)c(Nc2nc(Nc3cnn(C)c3)ncc2-c2ccc3ccccc3c2)c1 [Compound 149, trifluoroacetate]
a: false

q: Hello, I'm reviewing records and need to know if GI50 of C=CC(=O)Nc1ccc(F)c(Nc2nc(Nc3cnn(C)c3)ncc2-c2ccnc(OC)c2)c1 is below 700 nM. Could you check?
a: true

q: Quick check: GI50 of C=CC(=O)Nc1ccc(F)c(Nc2nc(Nc3cnn(CCO)c3)ncc2-c2ccc(Br)cc2)c1 under 700 nM?
a: true

q: Does the reported GI50 of the following compound sit strictly below 700 nM? C=CC(=O)Nc1ccc(F)c(Nc2nc(Nc3cnn(C)c3)ncc2-c2ccc(OC(F)F)cc2)c1
a: true

q: Consider C=CC(=O)Nc1ccc(F)c(Nc2nc(Nc3cnn(C)c3)ncc2-c2ccc(C3CC3)cc2)c1 [Compound 128, trifluoroacetate] . Does its GI50 lie strictly below 700 nM?
a: true

q: Criterion: GI50 strictly below 700 nM. Is it met by C=CC(=O)Nc1cccc(Nc2nc(Nc3cnn(C)c3)ncc2-c2ccc(OC(F)F)cc2)c1 [Compound 142, trifluoroacetate] ?
a: true

q: Please check: GI50 for CN(C)C/C=C/C(=O)Nc1ccc(F)c(Nc2nc(Nc3cnn(C)c3)ncc2C#Cc2ccccc2)c1 , strictly under 700 nM or not?
a: true

q: Does the reported GI50 of the following compound sit strictly below 700 nM? C=CC(=O)Nc1ccc(F)c(Nc2nc(Nc3cnn(C)c3)nc3ccc(C(F)(F)F)cc23)c1
a: false

q: Dear colleague, could you confirm whether GI50 of C=CC(=O)Nc1ccc(F)c(Nc2nc(Nc3cnn(C)c3)ncc2-c2ccc3nccn3c2)c1 [Compound 133, trifluoroacetate] falls below 700 nM? Thanks.
a: true

----------
Would you kindly list GI50 for each of these compounds?
biological target: EGFR(D770_N771insSVD) expressing Ba/F3 stable cell line (Homo sapiens, UniProt P00533, DUP768-770, cells depend on it); assay: Cellular proliferation (Alamar Blue) assay, EGFR D770_N771insSVD Ba/F3; type: cell-based; conditions: 72 hr, read-out: D770 IC50
Counter-ions that a name gives are not always drawn.
Numbers only, in nM.

// below: answered compounds
                                   compound  endpoint_name  value_measured
0  C=CC(=O)Nc1ccc(F)c(Nc2nc(Nc3cnn(C4CCOCC4)c3)ncc2-c2ccc(C(F)(F)F)cc2)c1           GI50             110
1  C=CC(=O)Nc1cncc(Nc2nc(Nc3cnn(C)c3)ncc2-c2ccc(C(F)(F)F)cc2)c1           GI50              57
2  C=CC(=O)Nc1ccc(F)c(Nc2nc(Nc3cnn(C)c3)ncc2-c2cccc(F)c2)c1           GI50              35

# per-item lookup of GI50; items listed below
1. C=CC(=O)Nc1cccc(Oc2nc(Nc3cnn(C)c3)ncc2-c2ccc(Cl)nc2)c1
2. C=CC(=O)Nc1ccc(F)c(Nc2nc(Nc3cnn(C)c3)ncc2-c2cncc(OC(F)F)c2)c1
3. C=CC(=O)Nc1ccc(F)c(Nc2nc(Nc3cnn(C)c3)ncc2-c2ccc(OC)cc2)c1
4. C=CC(=O)Nc1ccc(F)c(Nc2nc(Nc3cnn(C)c3)ncc2-c2ccc(S(N)(=O)=O)cc2)c1

a:
1. 40
2. 38
3. 62
4. 3140

Dear reader, for each entry below, please note its GI50.
1. C=CC(=O)Nc1ccc(F)c(Oc2nc(Nc3cnn(C)c3)ncc2Cl)c1
2. C=CC(=O)Nc1ccc(F)c(Nc2nc(Nc3cc(C)ns3)ncc2-c2ccc(C(F)(F)F)cc2)c1
3. C=CC(=O)Nc1ccc(F)c(Nc2nc(Nc3cnn(CCO)c3)ncc2Cl)c1
4. C=CC(=O)Nc1ccc(F)c(Nc2nc(Nc3cnn(CCN(C)C)c3)ncc2-c2ccc(Br)cc2)c1

a:
1320
404
373
69

Would you mind listing GI50 for each of the following compounds?
1. C=CC(=O)Nc1cccc(Oc2nc(Nc3cnn(C)c3)ncc2N2CCN(C)CC2)c1
2. C=CC(=O)Nc1ccc(F)c(Nc2nc(Nc3cnn(C)c3)ncc2-c2ccc(Cl)cc2)c1
3. C=CC(=O)Nc1ccc(F)c(Nc2nc(Nc3cn(C)nc3F)ncc2-c2ccc(C(F)(F)F)cc2)c1
4. C=CC(=O)Nc1ccc(F)c(Nc2nc(Nc3cnn(C)c3)ncc2-c2ccnc(F)c2)c1
5. C=CC(=O)Nc1ccc(F)c(Nc2nc(Nc3cnn(C)c3)ncc2C2=CCOCC2)c1
6. C=CC(=O)Nc1ccc(F)c(Nc2nc(Nc3cnn(C)c3)ncc2-c2cccnc2)c1
7. C=CC(=O)Nc1ccc(F)c(Nc2nc(Nc3cnn(C)c3)ncc2-c2cnc(C(F)(F)F)nc2)c1
8. [2H]C([2H])=CC(=O)Nc1ccc(F)c(Nc2nc(Nc3cnn(C)c3)ncc2-c2ccc(C(F)(F)F)cc2)c1

a:
1: 9030; 2: 56; 3: 171; 4: 38; 5: 328; 6: 64; 7: 24; 8: 86

Please look at the items below and tell me GI50 for each one, in order.
1. C=CC(=O)Nc1cccc(F)c1CNc1nc(Nc2cnn(C)c2)ncc1Cl
2. C=CC(=O)Nc1ccc(F)c(Nc2nc(Nc3cn(CCN(C)C)nc3Cl)ncc2-c2ccc(Br)cc2)c1
3. Cn1cc(Nc2ncc(Cl)c(Nc3cc(NC(=O)/C=C/CF)ccc3F)n2)cn1
4. C=CC(=O)Nc1ccc(F)c(Nc2nc(Nc3cnn(C)c3)ncc2-c2ccc(CC(F)(F)F)cc2)c1 [Compound 130, trifluoroacetate]
5. C=CC(=O)Nc1ccc(F)c(Nc2nc(Nc3cnn(C)c3)ncc2C2CC2)c1 [Compound 120, trifluoroacetate]
6. C=CC(=O)Nc1ccc(F)c(Nc2nc(Nc3cnn(C)c3)ncc2-c2cccc(C(=O)NC)c2)c1

a:
1: 9780; 2: 76; 3: 3270; 4: 26; 5: 967; 6: 7940
